# measured-on: Nonstructural protein 3 (Zika virus, UniProt A0A024AXB9)
# Sequence (A0A024AXB9 whole entry): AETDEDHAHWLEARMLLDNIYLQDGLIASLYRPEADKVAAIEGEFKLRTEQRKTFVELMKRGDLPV
# test-summary: Functional biochemical assay to identify treatments for viral infectious disease that targets Zika NS2B-NS3 protease. Utilizing a direct enzyme activity measurement method, reading the fluorescence intensity is used to characterize the relative potency of inhibitors as IC50.
# Set-up: species or system PRVABC59
pIC50: −log10 of the molar value.
observable: pIC50

Reference set, count: 3
1. NC(=O)c1cccnc1N1CCCN(c2nc(-c3cc(Cl)cc(Cl)c3)no2)CC1: < 4.00
2. O=C(N[C@@H](C(=O)Nc1ccccn1)c1ccc(OCc2ccccc2)cc1)OCc1ccccc1: < 4.00
3. CN1CCC(COc2ccc([C@@H](NC(=O)OCc3ccccc3)C(=O)Nc3cccc(CN)c3)cc2)CC1: 4.08

Query :: Report pIC50 for NCc1cccc(NC(=O)[C@@H]2c3ccsc3CCN2C(=O)OCc2ccccc2)c1
Result :: < 4.00

Query :: For the compound O=C(Nc1cc(Cl)cc(C(=O)Nc2cccc(CC3CCNCC3)c2)c1)OCc1ccccc1 , give its reported pIC50.
Result :: < 4.00

Query :: Give pIC50 for COc1ccc(COc2ccc(S(=O)(=O)Nc3ccc(Cl)cc3C(=O)O)cc2)nc1
Result :: < 4.00

Query :: Report pIC50, nothing else, for this compound: O=C(Nc1cc(Cl)cc(S(=O)(=O)Nc2cccc(-c3nn[nH]n3)c2)c1)OCc1ccccc1
Result :: < 4.00

Query :: State its pIC50 for this compound: COc1ccc2nc(C)cc(C(=O)Nc3cccc(CN)c3)c2c1
Result :: < 4.00

Query :: Look up pIC50 of CNC(=O)c1cc(Cl)c(OC)cc1NS(=O)(=O)c1ccc(Oc2ccccc2Cl)cc1 and report it.
Result :: 4.27

Query :: Report pIC50 for O=C1Cc2c(cccc2C(=O)Nc2nnc3n2CCCS3)N1
Result :: < 4.60

Query :: Specify measured pIC50 for Cc1c(C(=O)Nc2cc(SC3COC3)ccn2)cc(C2CC2)n1C .
Result :: < 4.60

Query :: Provide pIC50 value for the following compound: O=C(Nc1ccc2c(c1)CNCCC2)c1cc(Cl)cc2[nH]ncc12
Result :: 6.42

###

# measured-on: Nonstructural protein 3 (Zika virus, UniProt A0A024AXB9)
# test-summary: Functional biochemical assay to identify treatments for viral infectious disease that targets Zika NS2B-NS3 protease. Utilizing a direct enzyme activity measurement method, reading the fluorescence intensity is used to characterize the relative potency of inhibitors as IC50.
# Design: species or system PRVABC59
observable: IC50

Use the examples below as a reference point.
1. O=Cc1ccc(N2CCC(C(=O)NCc3cccc(-c4ccccc4)c3)CC2)cc1: > 99.9 µM
2. N#Cc1cccc(-c2nc3c(C(=O)Nc4ccc(F)cc4)cc(Cl)cc3[nH]2)c1: > 25 µM
3. O=C(Nc1cc(Cl)cc(C(=O)N[C@H](c2nn[nH]n2)C2CNC2)c1)OCc1ccccc1: > 99.5 µM
4. CC(C)C[C@H](NC(=O)c1cc(Cl)cc(NC(=O)OCc2ccccc2)c1)c1nnn[nH]1: > 99.5 µM

Now for another entry.
Query :: Hello, please tell me recorded IC50 for this one: O=C(Nc1cc(Cl)cc(C(=O)Nc2cccc(-c3nnn[nH]3)c2)c1)OCc1ccccc1
Result :: 40.8 µM

Data origin, for the record: ChEMBL document CHEMBL5604062
